target: T1, HPV 16 E6(29-38)-peptide-MHC tetramer complex (human papillomavirus 16 (HPV16); human); assay: flow cytometry, peptide-MHC tetramer staining of TCR-transduced primary human T cells;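 note: normal donor T cells activated with anti-CD3/anti-CD28, then lentivirally transduced with TCRs, with mock-transduced cells as control, co-stained for the transduction marker and CD8, tetramers presented by HLA-A02:01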
T1 construct: also called E6(29-38)-specific tetramer
ASSAY_READOUT: % of CD8+ cells positive for E6(29-38) tetramer staining
Note to self: number, then unit, no commentary.

TCR 57 (mouse constant regions) (TCR, V domains shown) V domain 1: TQLLEQSPQFLSIQEGENLTVYCNSSSVFSSLQWYRQEPGEGPVLLVTVVTGGEVKKLKRLTFQFGDARKDSSLHITAAQPGDTGLYLCAGARNFNKFYFGSGTKLNVKP V domain 2: GAVVSQHPSWVICKSGTSVKIECRSLDFQATTMFWYRQFPKQSLMLMATSNEGSKATYEQGVEKDKFLINHASLTLSTLTVTSAHPEDSSFYICSARSWRGGLEQFFGPGTRLTVLE    0.23%
TCR 64 (mouse constant regions) (TCR, V domains shown) V domain 1: AQKVTQAQTEISVVEKEDVTLDCVYETRDTTYYLFWYKQPPSGELVFLIRRNSFDEQNEISGRYSWNFQKSTSSFNFTITASQVVDSAVYFCALSGVDNYGQNFVFGPGTRLSVLP V domain 2: DTAVSQTPKYLVTQMGNDKSIKCEQNLGHDTMYWYKQDSKKFLKIMFSYNNKELIINETVPNRFSPKSPDKAHLNLHINSLELGDSAVYFCASSQGEAGANVLTFGAGSRLTVLE    0.17%

We next turn to a different binder, shown below.
Name the reported % of CD8+ cells positive for E6(29-38) tetramer staining value associated with the binder TCR 63 (mouse constant regions) (TCR, V domains shown) V domain 1: SQELEQSPQSLIVQEGKNLTINCTSSKTLYGLYWYKQKYGEGLIFLMMLQKGGEEKSHEKITAKLDEKKQQSSLHITASQPSHAGIYLCGADIDDYKLSFGAGTTVTVRA V domain 2: GAGVSQSPRYKVAKRGQDVALRCDPISGHVSLFWYQQALGQGPEFLTYFQNEAQLDKSGLPSDRFFAERPEGSVSTLKIQRTQQEDSAVYLCASRPRQGYNDNEQFFGPGTRLTVLE
0.23%
